assay.method.text: NCI Yeast Anticancer Drug Screen. Data for the bub3 strain (AID 167)
conditions.used: S. cerevisiae bub3 mutant strain, at 50.0 µM (retest, dose inferred, filed as 5.0)
Compounds without any hit were thinned out: in the full panel of roughly 79,000, 15% have a hit. Activity calls are given as the source filed them. Rule as the data show it: active = growth inhibition above about 70%; inactive = the rest.
Respond only with the outcome that fits, drawn from active, inactive

[[record]]
compound = "C/C([O-])=C1\\Cc2ccccc2C1=O.C/C([O-])=C1\\Cc2ccccc2C1=O.CC[O-].CC[O-].[Ti+4]"
category_label = "inactive"

[[record]]
compound = "CN(C)CCNC(=O)c1cccc2ccc(-c3ccc(-c4ccccc4)cc3)nc12"
category_label = "active"

[[record]]
compound = "OCCC1CCN(CC/C=C2/c3ccc(F)cc3Sc3ccc(C(F)(F)F)cc32)CC1"
category_label = "inactive"

[[record]]
compound = "C=C(C)C1CC2=C(O1)C(=O)c1ccccc1C2=O (stereo not given)"
category_label = "active"


Continue with the compound presented below.
Data request: Which result was noted for this compound in the test: CCOC(=O)C1(C#N)C(=O)CSC1=Nc1ccccc1Cl (stereo not given)
Data returned: inactive

====

assay.method.text: NCI Yeast Anticancer Drug Screen. Data for the sgs1 mgt1 strain (AID 161);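 also: 0% = growth of cultures given vehicle only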
conditions.used: S. cerevisiae sgs1 mgt1 strain, at 50.0 µM (retest, dose inferred, filed as 5.0), hits give high values
This is part of a sample that, as a whole, favours compounds with a hit. Of some 79,000 tested, about 15% had one in any assay.
reported.metric: growth inhibition (%)
// units = %; emit number, no label

Sample records with growth inhibition:
[[record]]
compound = "COc1cc[c]([Sn]([O][Sn]([Cl])([c]2ccc(OC)cc2)[c]2ccc(OC)cc2)[c]2ccc(OC)cc2)cc1"
reported_metric = "growth inhibition"
value = 98

[[record]]
compound = "Cc1cc(N)c2cc(OCCOc3ccc4nc(C)cc(N)c4c3)ccc2n1"
reported_metric = "growth inhibition"
value = 93

[[record]]
compound = "CCCCCCCCCCCCCCOS(=O)(=O)O"
reported_metric = "growth inhibition"
value = 100


Data request: Can you look up the measured growth inhibition of `COc1ccc(COCCOCc2nc(C#N)c(N)o2)cc1` for me?
Data returned: 5

Data request: State the recorded growth inhibition for this entry: `CN(C)CCNC(=O)c1cccc2ccc(-c3ccc(-c4ccccc4)cc3)nc12`
Data returned: 99

Data request: Any idea what growth inhibition was measured for `COc1ccc2c(c1)N=C(N)n1c(nc3ccccc31)S2` ?
Data returned: 83

Data request: # growth inhibition lookup, item `Oc1cc(C(c2ccccc2)c2ccccc2)c2ccccc2c1O`
Data returned: 1

Data request: What value of growth inhibition has been recorded for this entry: `Cc1nnc2nc3c(nn12)c1ccccc1n3C`
Data returned: -46

Data request: Tell me the measured growth inhibition of `N#C/C(=C/c1cc(I)cc(I)c1O)C(N)=O` , please.
Data returned: 97

Data request: I have this compound here, `O=C1C(Cl)=C(Nc2cc(Cl)ccc2Cl)C(=O)c2ccccc21` , and I need its recorded growth inhibition.
Data returned: 100

Data request: Please give the measured growth inhibition for this compound: `O=C1C=CC(=O)c2nc3ccccc3nc21`
Data returned: 98

Data request: Sample `Cc1nc(C(N)=S)sc1/C(CC(=O)C(=O)Nc1cccc2ccc(O)cc12)=N\NC(=O)c1ccncc1` — what was its growth inhibition?
Data returned: 28

Data request: Quick one: growth inhibition for `CC(C)C(=O)c1ccc2ccccc2c1O` ?
Data returned: -8

Data request: I'd like to know its growth inhibition. The compound in question is `C1=Cc2ccccc2/C1=C/c1ccccc1`
Data returned: 97

Data request: Record request: growth inhibition value, item `COc1ccc(NC(=S)N/N=C/c2cccc(C)n2)cc1`
Data returned: 90

Data request: Which value of growth inhibition has been reported for `O=C(Oc1cccc2cccnc12)c1cccnc1` in the records?
Data returned: 99

Data provenance is PubChem BioAssay (NCI).
